Assay: Selectivity index, ratio of TC50 for african green monkey (Cercopithecus aethiops) Vero cells to IC50 for Plasmodium falciparum D6
Assay type: toxicity, cell-based
Measured selectivity ratio, listed per entry.

Below: 2 compounds and their reported selectivity ratio.
compound	selectivity ratio
C[C@H]1[C@@H](OC/C=C\CO)O[C@@H]2O[C@@]3(C)CC[C@H]4[C@H](C)CC[C@@H]1[C@@]24OO3	> 2160
C[C@H]1[C@@H](OC[C@@H](O)[C@@H](O)CO[C@H]2O[C@@H]3O[C@@]4(C)CC[C@H]5[C@H](C)CC[C@@H]([C@H]2C)[C@@]35OO4)O[C@@H]2O[C@@]3(C)CC[C@H]4[C@H](C)CC[C@@H]1[C@@]24OO3 (relative stereo)	> 1080

Looking up `C[C@H]1[C@@H](OCc2cc(O)cc(O)c2)O[C@@H]2O[C@@]3(C)CC[C@H]4[C@H](C)CC[C@@H]1[C@@]24OO3` , I see its selectivity ratio listed as > 560
